System: SK-MEL-28
Assay Protocol: NCI tumour cell line growth inhibition, 48 h
Active and inactive are the calls of the source. No stated cut-off is given here; in the data, active = GI50 up to about 1.1 µM and inactive = higher. Non-standard residues stand in square brackets, D forms with d. Residues, ends and D or L forms follow the SMILES beside them. ξ: configuration not given here. *: point of attachment. NMeF = CN[C@@H](Cc1ccccc1)C(=O)O; NMeV = CN[C@H](C(=O)O)C(C)C; ξNMeV = CNC(C(=O)O)C(C)C; Boc = CC(C)(C)OC(=O)*; OBn = c1ccc(CO*)cc1
Form entry, call: pick from active, inactive

Some entries whose results are on file:
CCCCOP(=O)(OCCCC)/C(C#N)=C/c1ccc(C)o1
inactive
OCC1O[C@H](O[C@@H]2CCCN3CC(O)C(O)[C@@H]23)C(O)C(O)C1O (some centres undefined)
inactive
CSc1nc(NC(C)C)c2c(n1)Sc1nc3ccccc3n1N=C2
inactive

Input: # fetch the recorded call for CCOC(=O)C1(CC)CCCCC(=O)N1 (centres undefined) here
Output: inactive

Input: Recorded test call requested for O=C(NCCN1C(=O)CN=C(c2ccc(Cl)cc2)c2cc(Cl)ccc21)OCc1ccccc1
Output: inactive

Input: What was the test verdict on Fc1cccc(F)c1C(Nc1nncs1)Nc1nncs1 ?
Output: inactive

Input: How was CSc1c(C#N)c(O)n(-c2ccc(Cl)cc2)c(=O)c1C(C)=O classified in this test?
Output: inactive

Input: I would be grateful if you could indicate the recorded call for CC(C)(C)[Si](C)(C)OCCCCC1CC2(S(=O)(=O)C3=CC=C=C=C3)ON1CC2S(=O)(=O)c1ccccc1 (centres undefined) .
Output: inactive

Input: Tell me the assay call for Cc1c(C)n(COCCO)c2ncnc(N)c12 please.
Output: inactive

Input: How did this test come out for CC(C)C(C(=O)N(C)[C@H](C(=O)N1CCC[C@H]1C(=O)N(C)[C@@H](Cc1ccccc1)C(=O)OCc1ccccc1)C(C)C)N(C)C(=O)[C@@H](NC(=O)OC(C)(C)C)C(C)C (some centres undefined) (Boc-V[ξNMeV][NMeV]P[NMeF]-OBn) ?
Output: inactive

Input: Write down the call the test reported for this compound. Item: COC(=O)C1=Cc2cn(S(=O)(=O)c3ccc(C)cc3)c3cccc(c23)C(C=C(C)C)N1C(C)=O (centres undefined)
Output: inactive

Input: For CCCCCCCCCCCCCCCCCCNc1ccn(C2OC(COP(=O)(O)OCC3OC(n4ccc(NC(=O)CCCCCCCCCCCCCCCCC)nc4=O)C(OC(C)=O)C3OC(C)=O)C(OC(C)=O)C2OC(C)=O)c(=O)n1 (centres undefined) , which call appears in the assay record?
Output: inactive

Input: Name the outcome recorded for COc1cccc(C2C3=C(COC3=O)Oc3cc4c(cc32)OCO4)c1 (centres undefined) in the assay.
Output: active

Input: Could you check what this test reported for O=C(Nc1ccccc1-c1nc2ccccc2[nH]c1=O)c1ccccc1 ?
Output: inactive

Input: Tell me the assay call for COC(=O)C1=C(C(=O)OC)C2OC1c1cc3ccccc3cc12 please.
Output: inactive

---

System: DLD-1
Assay Protocol: NCI tumour cell line growth inhibition, 48 h
Active and inactive are the calls of the source. No stated cut-off is given here; in the data, active = GI50 up to about 1.1 µM and inactive = higher.
Documented GI50 across a set of compounds

Record COC(=O)C1=Cc2cn(S(=O)(=O)c3ccc(C)cc3)c3cccc(c23)C(C=C(C)C)N1C(C)=O (centres undefined) . Reported GI50: 14.7 µM (inactive)
